Test system: 945468-187-T-J2-PDC spheroids viability;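 also: spheroids exposed to compounds for seven days before reading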
measurement.description: Anticancer human tumor 945468-187-T-J2-PDC patient-derived rectal carcinoma cell line growth inhibition [PI3K]
condition.description: curve of first compound; second compound 0.1 µM; spheroids with HUVEC and MSC
pIC50: −log10 of the molar value.
reported.metric: pIC50

Please review the following examples before continuing.
{"molecule": "Cn1ncnc1[C@H]1c2n[nH]c(=O)c3cc(F)cc(c23)N[C@@H]1c1ccc(F)cc1 + CC(Nc1ccc2c(c1)OCCn1cc(N3C(=O)OCC3C(F)F)nc1-2)C(N)=O", "reported.metric": "pIC50", "measured": "< 7.00"}
{"molecule": "CNC(=O)c1ccc(N2C(=S)N(c3ccc(C#N)c(C(F)(F)F)c3)C(=O)C2(C)C)cc1F + CC(Nc1ccc2c(c1)OCCn1cc(N3C(=O)OCC3C(F)F)nc1-2)C(N)=O", "reported.metric": "pIC50", "measured": "< 5.00"}
{"molecule": "C=CC(=O)N1CCN(c2nc(=O)n(-c3c(C)ccnc3C(C)C)c3nc(-c4c(O)cccc4F)c(F)cc23)C(C)C1 (stereo unspecified) + COc1c(OCCCN2CCOCC2)ccc2c3n(c(=NC(=O)c4cnc(N)nc4)nc12)CCN3", "reported.metric": "pIC50", "measured": "< 5.00"}
{"molecule": "Cn1ncnc1[C@H]1c2n[nH]c(=O)c3cc(F)cc(c23)N[C@@H]1c1ccc(F)cc1 + CC(Nc1ncnc2nc[nH]c12)c1cc2cccc(Cl)c2c(=O)n1-c1ccccc1", "reported.metric": "pIC50", "measured": "< 7.00"}
{"molecule": "CC(C)NCC(C(=O)N1CCN(c2ncnc3c2C(C)CC3O)CC1)c1ccc(Cl)cc1 (stereo unspecified) + CC(Nc1ccc2c(c1)OCCn1cc(N3C(=O)OCC3C(F)F)nc1-2)C(N)=O", "reported.metric": "pIC50", "measured": "< 5.00"}

Recorded pIC50 for Cn1cnc2c(F)c(Nc3ccc(Br)cc3Cl)c(C(=O)NOCCO)cc21 + CC(Nc1ncnc2nc[nH]c12)c1cc2cccc(Cl)c2c(=O)n1-c1ccccc1 , please?
< 5.52

Recorded pIC50 for CC(=O)c1c(C)c2cnc(Nc3ccc(N4CCNCC4)cn3)nc2n(C2CCCC2)c1=O + CC(Nc1ccc2c(c1)OCCn1cc(N3C(=O)OCC3C(F)F)nc1-2)C(N)=O , please?
< 7.00

Recorded pIC50 for Cn1ncc(Cl)c1-c1cc(C(=O)NC(CN)Cc2cccc(F)c2)sc1Cl (stereo unspecified) + COc1c(OCCCN2CCOCC2)ccc2c3n(c(=NC(=O)c4cnc(N)nc4)nc12)CCN3 , please?
5.58

Recorded pIC50 for CC(C)NCC(C(=O)N1CCN(c2ncnc3c2C(C)CC3O)CC1)c1ccc(Cl)cc1 (stereo unspecified) + COc1c(OCCCN2CCOCC2)ccc2c3n(c(=NC(=O)c4cnc(N)nc4)nc12)CCN3 , please?
< 5.00

Recorded pIC50 for CCN1CCN(Cc2ccc(Nc3ncc(F)c(-c4cc(F)c5nc(C)n(C(C)C)c5c4)n3)nc2)CC1 + CC(Nc1ncnc2nc[nH]c12)c1cc2cccc(Cl)c2c(=O)n1-c1ccccc1 , please?
< 6.00

Recorded pIC50 for C=CC(=O)N1CCN(c2nc(=O)n(-c3c(C)ccnc3C(C)C)c3nc(-c4c(O)cccc4F)c(F)cc23)C(C)C1 (stereo unspecified) + Cc1nc(NC(=O)N2CCCC2C(N)=O)sc1-c1ccnc(C(C)(C)C(F)(F)F)c1 , please?
< 5.00

Origin of measurements: PubChem BioAssay AID1963972
